Provide the reported EC50 of each item.
# Test system: SK-MEL-2
# method.notes: Cytotoxicity against human SK-MEL-2 cells by SRB method
# Assay type: functional
# measurement.parameters: read-out: ED50 (the source's name)

Entry CO[C@@H]1[C@@H](O)[C@H](O[C@@H]2[C@@H](O)[C@H](O[C@@H]3CO[C@@H](O[C@H]4[C@H](O[C@H]5CC[C@]6(C)[C@@H]7CC[C@]89C(=O)O[C@@](C)(/C=C\C=C(C)C)[C@@]8(O)[C@@H](OC(C)=O)C[C@@]9(C)C7=CC[C@H]6C5(C)C)OC[C@@H](OS(=O)(=O)[O-])[C@@H]4O)[C@H](O)[C@H]3O)OC[C@H]2O)O[C@H](CO)[C@H]1O.[Na+] [LNTERCEDENSIDE E] , EC50 reported as 1.6 µg/mL

For record CO[C@@H]1[C@@H](O)[C@H](O[C@@H]2[C@@H](O)[C@H](O[C@H]3[C@H](O)[C@@H](O)[C@H](O[C@H]4[C@H](O[C@H]5CC[C@]6(C)[C@@H]7CC[C@]89C(=O)O[C@@](C)(/C=C\C=C(C)C)[C@@]8(O)[C@@H](OC(C)=O)C[C@@]9(C)C7=CC[C@H]6C5(C)C)OC[C@@H](OS(=O)(=O)[O-])[C@@H]4O)O[C@@H]3C)OC[C@H]2O)O[C@H](CO)[C@H]1O.[Na+] [LNTERCEDENSIDE H] the listed EC50 is 2.2 µg/mL

Taken from ChEMBL document CHEMBL1158732.
